Taken from PubChem BioAssay AID1963844.

Tested on: 422866-222-R5-J1-PDC complex spheroid viability
Experiment: Anticancer human tumor 422866-222-R5-J1-PDC patient-derived pancreatic adenocarcinoma cell line growth inhibition [POLQ]
Condition info: second compound 0.1 µM; first compound 3.16 µM; stronger effect = lower value
Measure: viability, T/C (%)
Give just the number in %; leave the unit off.

Qu. Provide measured viability, T/C value, entry: CC1COCCN1c1cc(C2(O)CC3CCC(C2)O3)c2cnn(-c3ccn[nH]3)c2n1 (stereo unspecified) + Nc1ccc(C#CCN(C(=O)Cc2ncc(C(F)(F)F)cc2C(F)(F)F)c2ccc(F)cc2)nn1
Ans. 83.6

Qu. Provide measured viability, T/C value, entry: COc1ccc([C@@H](O)c2cc(-c3ncnc4cc(N5CCOCC5)ccc34)c(F)cc2Cl)nn1 + COC1C(OC(N)=O)C(O)C(Oc2ccc3c(O)c(NC(=O)c4ccc(O)c(CC=C(C)C)c4)c(=O)oc3c2C)OC1(C)C
Ans. 45.5

Qu. Provide measured viability, T/C value, entry: CC1COCCN1c1cc(C2(O)CC3CCC(C2)O3)c2cnn(-c3ccn[nH]3)c2n1 (stereo unspecified) + Cc1cccc(N(C)C(=O)C2C(O)CCN2c2nc(C)cc(C(F)(F)F)c2C#N)c1
Ans. 68.8

Qu. Provide measured viability, T/C value, entry: CC(C)n1c(=O)n(C)c2cnc3cc(F)c(-c4ccc(OCCCN5CCCCC5)nc4)cc3c21 + COC1C(OC(N)=O)C(O)C(Oc2ccc3c(O)c(NC(=O)c4ccc(O)c(CC=C(C)C)c4)c(=O)oc3c2C)OC1(C)C
Ans. 36.9

Qu. Provide measured viability, T/C value, entry: Nc1ccn(C2OC(CO)C(O)C2(F)F)c(=O)n1 (stereo unspecified) + Cc1cccc(N(C)C(=O)C2C(O)CCN2c2nc(C)cc(C(F)(F)F)c2C#N)c1
Ans. 35.5

Qu. Provide measured viability, T/C value, entry: CNCc1ccc(-c2[nH]c3cc(F)cc4c3c2CCNC4=O)cc1 + COC1C(OC(N)=O)C(O)C(Oc2ccc3c(O)c(NC(=O)c4ccc(O)c(CC=C(C)C)c4)c(=O)oc3c2C)OC1(C)C
Ans. 76.7

Qu. Provide measured viability, T/C value, entry: Nc1ccn(C2OC(CO)C(O)C2(F)F)c(=O)n1 (stereo unspecified) + COC1C(OC(N)=O)C(O)C(Oc2ccc3c(O)c(NC(=O)c4ccc(O)c(CC=C(C)C)c4)c(=O)oc3c2C)OC1(C)C
Ans. 32.6

Qu. Provide measured viability, T/C value, entry: CC1COCCN1c1cc(-c2ccnn2C)c2ccnc(-c3ccn[nH]3)c2n1 (stereo unspecified) + Nc1ccc(C#CCN(C(=O)Cc2ncc(C(F)(F)F)cc2C(F)(F)F)c2ccc(F)cc2)nn1
Ans. 45

Qu. Provide measured viability, T/C value, entry: O=c1[nH]cc(F)c(=O)[nH]1 + Cc1cccc(N(C)C(=O)C2C(O)CCN2c2nc(C)cc(C(F)(F)F)c2C#N)c1
Ans. 66.9

Qu. Provide measured viability, T/C value, entry: Nc1ccn(C2OC(CO)C(O)C2(F)F)c(=O)n1 (stereo unspecified) + Nc1ccc(C#CCN(C(=O)Cc2ncc(C(F)(F)F)cc2C(F)(F)F)c2ccc(F)cc2)nn1
Ans. 38.1

Qu. Provide measured viability, T/C value, entry: C#Cc1c(F)ccc2cc(O)cc(-c3ncc4c(N5CC6CCC(C5)N6)nc(OCC56CCCN5CC(F)C6)nc4c3F)c12 (stereo unspecified) + Nc1ccc(C#CCN(C(=O)Cc2ncc(C(F)(F)F)cc2C(F)(F)F)c2ccc(F)cc2)nn1
Ans. 32.1

Qu. Provide measured viability, T/C value, entry: C#Cc1c(F)ccc2cc(O)cc(-c3ncc4c(N5CC6CCC(C5)N6)nc(OCC56CCCN5CC(F)C6)nc4c3F)c12 (stereo unspecified) + COC1C(OC(N)=O)C(O)C(Oc2ccc3c(O)c(NC(=O)c4ccc(O)c(CC=C(C)C)c4)c(=O)oc3c2C)OC1(C)C
Ans. 34.2

Qu. Provide measured viability, T/C value, entry: CC1COCCN1c1cc(C2(S(C)(=N)=O)CC2)nc(-c2ccnc3[nH]ccc23)n1 (stereo unspecified) + Nc1ccc(C#CCN(C(=O)Cc2ncc(C(F)(F)F)cc2C(F)(F)F)c2ccc(F)cc2)nn1
Ans. 41.4

Qu. Provide measured viability, T/C value, entry: O=C(Nc1ccc(O)c(NS(=O)(=O)c2ccc(F)cc2)c1)c1ccc(-c2ccccc2)cc1 + Cc1cccc(N(C)C(=O)C2C(O)CCN2c2nc(C)cc(C(F)(F)F)c2C#N)c1
Ans. 95.5

Qu. Provide measured viability, T/C value, entry: COc1cc(C2c3cc4c(cc3C(OC3OC5COC(C)OC5C(O)C3O)C3COC(=O)C23)OCO4)cc(OC)c1O (stereo unspecified) + Cc1cccc(N(C)C(=O)C2C(O)CCN2c2nc(C)cc(C(F)(F)F)c2C#N)c1
Ans. 44.2

Qu. Provide measured viability, T/C value, entry: COc1cccc2c1C(=O)c1c(O)c3c(c(O)c1C2=O)CC(O)(C(=O)CO)CC3OC1CC(N)C(O)C(C)O1 (stereo unspecified) + Nc1ccc(C#CCN(C(=O)Cc2ncc(C(F)(F)F)cc2C(F)(F)F)c2ccc(F)cc2)nn1
Ans. 29.6

* * *

Test system: 422866-222-R5-J1-PDC complex spheroid viability
Experiment: Anticancer human tumor 422866-222-R5-J1-PDC cell line growth inhibition [POLQ];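 also: spheroids exposed to compounds for one week before readout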;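 as to viability, T/C: percent of DMSO vehicle wells luminescence so 100% = untreated viability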
Condition info: second compound 0.0316 µM; first compound 3.16 µM; stronger effect = lower value
Measure: viability, T/C (%)
Give just the number in %; leave the unit off.

Qu. Provide measured viability, T/C value, entry: O=C(Nc1ccc(O)c(NS(=O)(=O)c2ccc(F)cc2)c1)c1ccc(-c2ccccc2)cc1 + Nc1ccc(C#CCN(C(=O)Cc2ncc(C(F)(F)F)cc2C(F)(F)F)c2ccc(F)cc2)nn1
Ans. 83.7

Qu. Provide measured viability, T/C value, entry: CC1COCCN1c1cc(C2(S(C)(=N)=O)CC2)nc(-c2ccnc3[nH]ccc23)n1 (stereo unspecified) + COC1C(OC(N)=O)C(O)C(Oc2ccc3c(O)c(NC(=O)c4ccc(O)c(CC=C(C)C)c4)c(=O)oc3c2C)OC1(C)C
Ans. 43.9

Qu. Provide measured viability, T/C value, entry: COc1cccc2c1C(=O)c1c(O)c3c(c(O)c1C2=O)CC(O)(C(=O)CO)CC3OC1CC(N)C(O)C(C)O1 (stereo unspecified) + Nc1ccc(C#CCN(C(=O)Cc2ncc(C(F)(F)F)cc2C(F)(F)F)c2ccc(F)cc2)nn1
Ans. 34.6

* * *

System: 422866-222-R5-J1-PDC complex spheroid viability
Experiment: Anticancer human tumor 422866-222-R5-J1-PDC cell line growth inhibition [POLQ];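 also: spheroids exposed to compounds for one week before readout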;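 as to viability, T/C: percent of DMSO vehicle wells luminescence so 100% = untreated viability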
Condition info: second compound 10 µM; first compound 10 µM; stronger effect = lower value
Method: Multicellular complex tumor spheroid response to Polymerase (POL) inhibitors (novobiocin, ART-558, RP6685) in combination with a variety of drugs and investigational agents in selected tumor cell lines The POL inhibitors (novobiocin, ART-558, and RP6685) were evaluated both individually and in combination with standard of care and investigational anticancer small molecules within a complex spheroid model of solid tumors. . […]
Measure: viability, T/C

Compound: CCCS(=O)(=O)Nc1ccc(F)c(C(=O)c2c[nH]c3ncc(-c4ccc(Cl)cc4)cc23)c1F + Cc1cccc(N(C)C(=O)C2C(O)CCN2c2nc(C)cc(C(F)(F)F)c2C#N)c1
Measure: viability, T/C
Measured value: 79.2%
--
Compound: CC1COCCN1c1cc(-c2ccnn2C)c2ccnc(-c3ccn[nH]3)c2n1 (stereo not given) + Cc1cccc(N(C)C(=O)C2C(O)CCN2c2nc(C)cc(C(F)(F)F)c2C#N)c1
Measure: viability, T/C
Measured value: 94.8%
--
Compound: COc1cc(C2c3cc4c(cc3C(OC3OC5COC(C)OC5C(O)C3O)C3COC(=O)C23)OCO4)cc(OC)c1O (stereo not given) + Cc1cccc(N(C)C(=O)C2C(O)CCN2c2nc(C)cc(C(F)(F)F)c2C#N)c1
Measure: viability, T/C
Measured value: 37%
--
Compound: CCc1cc2c(N3CCc4c(cc(Cn5ccnc5)cc4-c4cn(C)nc4C(F)(F)F)C3=O)ccnc2c(OC)n1 + Cc1cccc(N(C)C(=O)C2C(O)CCN2c2nc(C)cc(C(F)(F)F)c2C#N)c1
Measure: viability, T/C
Measured value: 105%

Qu. Provide measured viability, T/C value, entry: Nc1ccn(C2OC(CO)C(O)C2(F)F)c(=O)n1 (stereo not given) + Nc1ccc(C#CCN(C(=O)Cc2ncc(C(F)(F)F)cc2C(F)(F)F)c2ccc(F)cc2)nn1
Ans. 30.6%

* * *

Catalogue of pIC50 readings, one per entry.
Tested on: 422866-222-R5-J1-PDC complex spheroid viability
Experiment: Anticancer human tumor 422866-222-R5-J1-PDC cell line growth inhibition [POLQ];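 also: spheroids exposed to compounds for one week before readout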
Condition info: curve of first compound; second compound 1 µM
pIC50: −log10 of the molar value.

Answered cases to consult:
Compound: COc1cccc2c1C(=O)c1c(O)c3c(c(O)c1C2=O)CC(O)(C(=O)CO)CC3OC1CC(N)C(O)C(C)O1 (centres undefined) + Cc1cccc(N(C)C(=O)C2C(O)CCN2c2nc(C)cc(C(F)(F)F)c2C#N)c1
pIC50: 6.69
//
Compound: CCc1cc2c(N3CCc4c(cc(Cn5ccnc5)cc4-c4cn(C)nc4C(F)(F)F)C3=O)cc(C)nc2c(OC)n1 + COC1C(OC(N)=O)C(O)C(Oc2ccc3c(O)c(NC(=O)c4ccc(O)c(CC=C(C)C)c4)c(=O)oc3c2C)OC1(C)C
pIC50: < 5.00
//
Compound: CCc1cc2c(N3CCc4c(cc(Cn5ccnc5)cc4-c4cn(C)nc4C(F)(F)F)C3=O)ccnc2c(OC)n1 + Nc1ccc(C#CCN(C(=O)Cc2ncc(C(F)(F)F)cc2C(F)(F)F)c2ccc(F)cc2)nn1
pIC50: < 5.00
//
Compound: CNCc1ccc(-c2[nH]c3cc(F)cc4c3c2CCNC4=O)cc1 + Nc1ccc(C#CCN(C(=O)Cc2ncc(C(F)(F)F)cc2C(F)(F)F)c2ccc(F)cc2)nn1
pIC50: < 5.00
//
Compound: COc1ccc([C@@H](O)c2cc(-c3ncnc4cc(N5CCOCC5)ccc34)c(F)cc2Cl)nn1 + Cc1cccc(N(C)C(=O)C2C(O)CCN2c2nc(C)cc(C(F)(F)F)c2C#N)c1
pIC50: 5.72

Qu. Provide measured pIC50 value, entry: CCc1c2c(nc3ccc(O)cc13)-c1cc3c(c(=O)n1C2)COC(=O)[C@]3(O)CC + COC1C(OC(N)=O)C(O)C(Oc2ccc3c(O)c(NC(=O)c4ccc(O)c(CC=C(C)C)c4)c(=O)oc3c2C)OC1(C)C
Ans. > 8.50

Qu. Provide measured pIC50 value, entry: CC(=O)O[C@H]1C(=O)[C@@]2(C)[C@H]([C@H](OC(=O)c3ccccc3)[C@]3(O)C[C@H](OC(=O)[C@H](O)[C@@H](NC(=O)c4ccccc4)c4ccccc4)C(C)=C1C3(C)C)[C@]1(OC(C)=O)CO[C@@H]1C[C@@H]2O + Nc1ccc(C#CCN(C(=O)Cc2ncc(C(F)(F)F)cc2C(F)(F)F)c2ccc(F)cc2)nn1
Ans. < 5.52

Qu. Provide measured pIC50 value, entry: C#Cc1c(F)ccc2cc(O)cc(-c3ncc4c(N5CC6CCC(C5)N6)nc(OCC56CCCN5CC(F)C6)nc4c3F)c12 (centres undefined) + COC1C(OC(N)=O)C(O)C(Oc2ccc3c(O)c(NC(=O)c4ccc(O)c(CC=C(C)C)c4)c(=O)oc3c2C)OC1(C)C
Ans. 6.07

Qu. Provide measured pIC50 value, entry: CCCS(=O)(=O)Nc1ccc(F)c(C(=O)c2c[nH]c3ncc(-c4ccc(Cl)cc4)cc23)c1F + COC1C(OC(N)=O)C(O)C(Oc2ccc3c(O)c(NC(=O)c4ccc(O)c(CC=C(C)C)c4)c(=O)oc3c2C)OC1(C)C
Ans. < 5.00
